Each recorded value in this set is attributed to ChEMBL document CHEMBL1806472.

# experiment description: Inhibition of PMA-induced proMMP9 production in human SRA 01/04 cells after 24 hrs by SDS-PAGE analysis
# Format: functional, cell-based
endpoint label: IC50 (µM)
Write the number in µM without appending the unit.

Examples with their reported IC50 follow.
COc1cc(-c2cc(=O)c3c(OC)c(OC)c(OC)c(OC)c3o2)ccc1O	3.7
COc1ccc(-c2cc(=O)c3c(OC)c(OC)c(OC)c(OC)c3o2)cc1OC	20.9
COc1c(OC)c(OC)c2c(=O)cc(-c3ccc(O)c(O)c3)oc2c1OC	12.3

Entry `COc1ccc(-c2cc(=O)c3c(OC)c(OC)c(OC)c(OC)c3o2)cc1O` : reported IC50 = ?
16.9
